Where do these numbers come from? They come from patent US8729087B2.

# System: Human U937 monocytic cells
# assay-summary: U937 IFNγ ICAM1 FACS Assay
# Assay type: cell-based
# study-conditions: IFNγ 10 ng/mL, 18-24 hours, ICAM-1 expression by flow cytometry; read-out: Example 5 (IC50, U937 IFNγ ICAM1 FACS assay)
readout-kind: IC50 (nM)
# unit: nM | format: bare number

Consider the reported IC50 for these molecules:
CCS(=O)(=O)NCc1ccc(Nc2nc(Nc3ccc(CS(=O)(=O)NC)cc3)ncc2C)cc1 = 133
N#CCOc1ccc(Nc2nc(Nc3cccc(CS(N)(=O)=O)c3)ncc2F)cc1 = 554
Cc1cnc(Nc2ccc(CCNS(=O)(=O)C3CC3)cc2)nc1Nc1ccc(CCNS(=O)(=O)C2CC2)cc1 = 991
CC1(C)Oc2cc(Nc3nc(Nc4cccc(CS(N)(=O)=O)c4)ncc3F)cnc2NC1=O = 18600
Cc1cnc(Nc2ccc(CNS(=O)(=O)C3CC3)cc2)nc1Nc1ccc(CNS(=O)(=O)C2CC2)cc1 = 71.3

Input line: Give the measured IC50 of "CCS(=O)(=O)NCc1ccc(Nc2nc(Nc3ccc(CS(=O)(=O)NC)cc3)ncc2F)cc1" .
Output line: 469

Input line: Another: "CNS(=O)(=O)Cc1ccc(Nc2ncc(F)c(Nc3ccc(CNS(=O)(=O)C4CC4)cc3)n2)cc1"
Output line: 347

* * *

# pIC50 annotations
# Tested on: Ramos B-cell line stimulated with IL-4
# assay-summary: Assay for Ramos B-Cell Line Stimulated with IL-4 (CD23 upregulation, FACS)
# Assay type: cell-based, human
# study-conditions: IL-4 50 units/mL, 20-24 hours, anti-CD23-PE staining, FACS; read-out: Example 2 (IC50, Ramos B-cell line stimulated with IL-4)
# Protocol: One means of assaying for such inhibition is detection of the effect of the 2,4-pyrimidinediamine compounds on the upregulation of downstream gene products. […] Twenty to 24 hours post stimulation, cells are stained for upregulation of CD23 and analyzed using flow cytometry (FACS). […]
// scale note: pIC50 = -log10(conc_M); give the bare number

Input line: Give the measured pIC50 of CN1C(=O)C(C)(C)Oc2cc(Nc3nc(Nc4cccc(CS(N)(=O)=O)c4)ncc3F)cnc21 [IV-2] .
Output line: 6.77

* * *

# System: A549 lung epithelial cells
# assay-summary: A549 Epithelial Line Stimulated with IFNγ (ICAM-1 surface expression, FACS)
# Assay type: cell-based, human
# study-conditions: IFNγ 75 ng/mL, 24 hours, ICAM-1 (CD54) surface expression by flow cytometry; read-out: Example 4 (IC50, A549 epithelial line stimulated with IFNγ)
Rule: IC50 below 4 µM gives Satisfied, anything at or above gives Not satisfied.

Input line: Field: below-cutoff. Rule: recorded IC50 strictly less than 4 µM. Subject: "CCS(=O)(=O)NCc1ccc(Nc2nc(Nc3ccc(CS(=O)(=O)NC)cc3)ncc2C)cc1"
Output line: Satisfied

Input line: Another: "Cc1cnc(Nc2ccc(CNS(=O)(=O)C3CC3)cc2)nc1Nc1ccc(CNS(=O)(=O)C2CC2)cc1"
Output line: Not satisfied

Input line: Another: "N#CCOc1ccc(Nc2nc(Nc3cccc(CS(N)(=O)=O)c3)ncc2F)cc1"
Output line: Satisfied

Input line: Another: "CN1C(=O)C(C)(C)Oc2cc(Nc3nc(Nc4cccc(CS(N)(=O)=O)c4)ncc3F)cnc21"
Output line: Satisfied

* * *

# System: Human U937 monocytic cells
# assay-summary: U937 IFNγ ICAM1 FACS Assay
# Type: cell-based
# study-conditions: Homo sapiens, U-937, read-out: Example 5 (IC50, U937 IFNγ ICAM1 FACS assay)
# Procedure: The activity of the compounds of the invention may additionally be characterized by assaying the effect of the 2,4-pyrimidinediamine compounds described herein on A549 lung epithelial cells and U937 cells. […] Therefore, using ICAM-1 expression as readout, test compound effects on different signaling pathways can be assessed in the same cell type. […] The up-regulation of ICAM-1 can be quantified by flow cytometry across a compound dose curve and EC50 values are calculated. […]
readout-kind: pIC50
// scale note: pIC50 = -log10(conc_M); give the bare number

Input line: Give the measured pIC50 of C#CCOc1ccc(Nc2nc(Nc3ccc4c(c3)CN(S(N)(=O)=O)CC4)ncc2F)cc1 [III-4] .
Output line: 6.34

* * *

# System: Ramos B-cell line stimulated with IL-4
# assay-summary: Assay for Ramos B-Cell Line Stimulated with IL-4 (CD23 upregulation, FACS)
# Assay type: cell-based, human
# study-conditions: IL-4 50 units/mL, 20-24 hours, anti-CD23-PE staining, FACS; read-out: Example 2 (IC50, Ramos B-cell line stimulated with IL-4)
pIC50: −log10 of the molar value.
If the reported pIC50 equals or exceeds 7, assign Met. If not, assign Not met.

Example cases with answers are listed next.
CCS(=O)(=O)NCc1cccc(Nc2nc(Nc3ccc(CS(=O)(=O)NC)cc3)ncc2F)c1 = Not met
Cc1cnc(Nc2ccc(CNS(=O)(=O)c3cccnc3)cc2)nc1Nc1ccc(CNS(=O)(=O)c2cccnc2)cc1 = Not met
N#CCOc1ccc(Nc2nc(Nc3cccc(CS(N)(=O)=O)c3)ncc2F)cc1 = Met
CCCN(Cc1ccc(Nc2nc(Nc3ccc(CS(=O)(=O)NC)cc3)ncc2F)cc1)S(=O)(=O)CC = Not met
CCS(=O)(=O)NCCc1ccc(Nc2nc(Nc3ccc(CS(=O)(=O)NC)cc3)ncc2F)cc1 = Not met

Next:
Input line: For this molecule, is measured pIC50 7 or higher? "Cc1cnc(Nc2ccc(CNS(=O)(=O)C3CC3)cc2)nc1Nc1ccc(CNS(=O)(=O)C2CC2)cc1"
Output line: Met

* * *

# Test system: Ramos B-cell line stimulated with IL-4
# assay-summary: Assay for Ramos B-Cell Line Stimulated with IL-4 (CD23 upregulation, FACS)
# Assay type: cell-based, human
# study-conditions: IL-4 50 units/mL, 20-24 hours, anti-CD23-PE staining, FACS; read-out: Example 2 (IC50, Ramos B-cell line stimulated with IL-4)
readout-kind: IC50 (nM)
# unit: nM | format: bare number

Consider the reported IC50 for these molecules:
CCS(=O)(=O)NCc1ccc(Nc2nc(Nc3ccc(CS(=O)(=O)NC)cc3)ncc2C)cc1 [Compound I-2] = 70.3
Cn1nccc1NC(=O)Cc1cccc(Nc2nc(Nc3cccc(CS(N)(=O)=O)c3)ncc2F)c1 [Compound I-20] = 1140
CCS(=O)(=O)NCc1ccc(Nc2nc(Nc3ccc(CS(=O)(=O)NC)cc3)ncc2F)cc1 [Compound I-10] = 285

Please examine the following record next.
Input line: Any idea what IC50 came out for CC1(C)Oc2ccc(Nc3nc(Nc4ccc5c(c4)CN(S(N)(=O)=O)CC5)ncc3F)nc2NC1=O [III-3] on Ramos B-cell line stimulated with IL-4?
Output line: 72.9

* * *

# Test system: Ramos B-cell line stimulated with IL-4
# assay-summary: Assay for Ramos B-Cell Line Stimulated with IL-4 (CD23 upregulation, FACS)
# Assay type: cell-based, human
# study-conditions: IL-4 50 units/mL, 20-24 hours, anti-CD23-PE staining, FACS; read-out: Example 2 (IC50, Ramos B-cell line stimulated with IL-4)
# IC50 annotations
# unit: µM | format: bare number

Consider the reported IC50 for these compounds:
CC1(C)Oc2cc(Nc3nc(Nc4cccc(CS(N)(=O)=O)c4)ncc3F)cnc2NC1=O = 0.133
Cc1cnc(Nc2ccc(CCNS(=O)(=O)C3CC3)cc2)nc1Nc1ccc(CCNS(=O)(=O)C2CC2)cc1 = 0.202

Input line: Give the measured IC50 of "CNS(=O)(=O)Cc1ccc(Nc2ncc(F)c(Nc3ccc(CNS(=O)(=O)C4CC4)cc3)n2)cc1" .
Output line: 0.147
